# Method notes: In vivo pharmacokinetic study in rats, plasma (IV and PO)
# Set-up: species or system Sprague-Dawley rats
# Experimental context: male, Sprague-Dawley, rat, plasma, intravenous; read-out: Vss
Listed below: Vd values for each entry.
Form field: result (number plus unit)

Here's what some known entries look like.
{"columns": ["Compound", "Vd"],
 "data": [
  ["C=C[C@]12OC(=O)N(CCCCn3cnc(-c4ccc(OC)nc4)c3)[C@@H]1[C@@H](C)C(=O)[C@H](C)C[C@](C)(OC)[C@H](OC1O[C@H](C)C[C@H](N(C)C)[C@H]1O)[C@@H](C)C(=O)[C@@H](C)C(=O)O[C@@H]2CC (some centres unmarked)", "11 L/kg"],
  ["C=C[C@]12OC(=O)N(CCCCn3cnc(-c4ccc(Cl)nc4)c3)[C@@H]1[C@@H](C)C(=O)[C@H](C)C[C@](C)(OC)[C@H](OC1O[C@H](C)C[C@H](N(C)C)[C@H]1O)[C@@H](C)C(=O)[C@@H](C)C(=O)O[C@@H]2CC (some centres unmarked)", "12 L/kg"],
  ["C=C[C@]12OC(=O)N(CCCCn3cnc(-c4ccc(C)nc4)c3)[C@@H]1[C@@H](C)C(=O)[C@H](C)C[C@](C)(OC)[C@H](OC1O[C@H](C)C[C@H](N(C)C)[C@H]1O)[C@@H](C)C(=O)[C@@H](C)C(=O)O[C@@H]2CC (some centres unmarked)", "14 L/kg"]
]}

Q. Any idea what its Vd is? The compound is C=C[C@]12OC(=O)N(CCCCn3cnc(-c4cnccc4Cl)c3)[C@@H]1[C@@H](C)C(=O)[C@H](C)C[C@](C)(OC)[C@H](OC1O[C@H](C)C[C@H](N(C)C)[C@H]1O)[C@@H](C)C(=O)[C@@H](C)C(=O)O[C@@H]2CC (some centres unmarked)
A. 8 L/kg

Q. Now the same for CC[C@H]1OC(=O)[C@@](C)(F)C(=O)[C@H](C)[C@@H](OC2O[C@H](C)C[C@H](N(C)C)[C@H]2O)[C@@](C)(OC)C[C@@H](C)C(=O)[C@H](C)[C@H]2N(CCCCn3cnc(-c4ccc(C)nc4)c3)C(=O)O[C@]12CC (some centres unmarked)
A. 13 L/kg

----------
Each record here notes measured MIC, strain ID D.
# System: Staphylococcus epidermidis Step_f50654
# Method notes: MIC, broth microdilution (NCCLS)
# Format: cell-based
# Experimental context: strain ID D; broth microdilution; in µg/mL (unit assumed)

// below: answered molecules
{"columns": ["Molecule", "Observed"],
 "data": [
  ["C=C[C@]12OC(=O)N(CCCCn3cnc(-c4cnccc4Cl)c3)[C@@H]1[C@@H](C)C(=O)[C@H](C)C[C@](C)(OC)[C@H](OC1O[C@H](C)C[C@H](N(C)C)[C@H]1O)[C@@H](C)C(=O)[C@@H](C)C(=O)O[C@@H]2CC (stereo partly shown)", 0.1],
  ["C=C[C@]12OC(=O)N(CCCCn3cnc(-c4cccnc4Cl)c3)[C@@H]1[C@@H](C)C(=O)[C@H](C)C[C@](C)(OC)[C@H](OC1O[C@H](C)C[C@H](N(C)C)[C@H]1O)[C@@H](C)C(=O)[C@@H](C)C(=O)O[C@@H]2CC (stereo partly shown)", 0.2],
  ["CC[C@H]1OC(=O)[C@H](C)C(=O)[C@H](C)[C@@H](O[C@@H]2O[C@H](C)C[C@H](N(C)C)[C@H]2O)[C@](C)(OC)C[C@@H](C)C(=O)[C@H](C)[C@H]2N(CCCCn3cnc(-c4cccnc4)c3)C(=O)O[C@]12C [Telithromycin, telithromycin, reference compound]", "0.1-0.2"],
  ["C=C[C@]12OC(=O)N(CCCCn3cc(-c4ccc(Cl)nc4)nc3C)[C@@H]1[C@@H](C)C(=O)[C@H](C)C[C@](C)(OC)[C@H](OC1O[C@H](C)C[C@H](N(C)C)[C@H]1O)[C@@H](C)C(=O)[C@@H](C)C(=O)O[C@@H]2CC (stereo partly shown)", 0.2],
  ["C#C[C@]12OC(=O)N(CCCCn3cnc(-c4ccc(OC)nc4)c3)[C@@H]1[C@@H](C)C(=O)[C@H](C)C[C@](C)(OC)[C@H](OC1O[C@H](C)C[C@H](N(C)C)[C@H]1O)[C@@H](C)C(=O)[C@@H](C)C(=O)O[C@@H]2CC (stereo partly shown)", 0.2],
  ["CC[C@H]1OC(=O)[C@H](C)C(=O)[C@H](C)[C@@H](OC2O[C@H](C)C[C@H](N(C)C)[C@H]2O)[C@@](C)(OC)C[C@@H](C)C(=O)[C@H](C)[C@@H]2[C@@H]1OC(=O)N2CCCCn1cnc(-c2ccc(Cl)nc2)c1 (stereo partly shown)", 0.2],
  ["C=C[C@]12OC(=O)N(CCCCn3cnc(-c4ccc(Cl)nc4)c3C)[C@@H]1[C@@H](C)C(=O)[C@H](C)C[C@](C)(OC)[C@H](OC1O[C@H](C)C[C@H](N(C)C)[C@H]1O)[C@@H](C)C(=O)[C@@H](C)C(=O)O[C@@H]2CC (stereo partly shown)", 0.2],
  ["C=C[C@]12OC(=O)N(CCCCn3cnc(-c4cnccc4OC)c3)[C@@H]1[C@@H](C)C(=O)[C@H](C)C[C@](C)(OC)[C@H](OC1O[C@H](C)C[C@H](N(C)C)[C@H]1O)[C@@H](C)C(=O)[C@@H](C)C(=O)O[C@@H]2CC (stereo partly shown)", 0.1],
  ["C=C[C@]12OC(=O)N(CCCCn3cnc(-c4cnc(Cl)c(C)c4)c3)[C@@H]1[C@@H](C)C(=O)[C@H](C)C[C@](C)(OC)[C@H](OC1O[C@H](C)C[C@H](N(C)C)[C@H]1O)[C@@H](C)C(=O)[C@@H](C)C(=O)O[C@@H]2CC (stereo partly shown)", 0.4]
]}

Moving on to the next molecule.
Q. Given C#C[C@]12OC(=O)N(CCCCn3cnc(-c4ccc(Cl)nc4)c3)[C@@H]1[C@@H](C)C(=O)[C@H](C)C[C@](C)(OC)[C@H](OC1O[C@H](C)C[C@H](N(C)C)[C@H]1O)[C@@H](C)C(=O)[C@@H](C)C(=O)O[C@@H]2CC (stereo partly shown) , state its recorded MIC, strain ID D.
A. 0.1
